B1: Histone-lysine N-methyltransferase SETD2, residues 2382 to 2430; numbered along this chain, Q9BYW2 (parent)
chain: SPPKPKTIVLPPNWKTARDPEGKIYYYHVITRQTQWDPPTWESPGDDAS

variants of: B1; test: abundance fitness (aPCA) (normalised: wild type 0, dead -1); higher = more abundant; growth selection in yeast, the domain comes from the species named; conditions: Homo sapiens
abundance fitness values by entry

>  <variant-key>
D19W

>  <abundance fitness>
-0.889

$$$$
>  <variant-key>
P11N

>  <abundance fitness>
-0.371

$$$$
>  <variant-key>
G45S

>  <abundance fitness>
0.025

$$$$
>  <variant-key>
S49A

>  <abundance fitness>
-0.418

$$$$
>  <variant-key>
W36V

>  <abundance fitness>
0.083

$$$$
>  <variant-key>
Q33I

>  <abundance fitness>
-0.551

$$$$
>  <variant-key>
E42F

>  <abundance fitness>
0.124

$$$$
>  <variant-key>
P11T

>  <abundance fitness>
-0.682

$$$$
>  <variant-key>
Y25M

>  <abundance fitness>
-0.56

$$$$
